Euclidean distance overview
tested on: HEPG2; test: Euclidean distance of Cell Painting phenotypic profile (signed KS, 77 features) to DMSO centroid (dimensionless distance); 5 or 10 uM (library dependent); higher = stronger phenotypic change vs DMSO (phenoactivity); conditions: 48 h
Counter-ions that a name gives are not always drawn.
Measurement Kind: Euclidean distance

1. CCC[C@@H]1C[C@@H](C(=O)N[C@@H]([C@H]2O[C@H](SC)[C@H](O)[C@@H](O)[C@H]2O)[C@H](C)Cl)N(C)C1 [Clindamycin]: 0.601
2. CCCCCCCCc1ccc(CCC(N)(CO)CO)cc1 [Fingolimod]: 5.29
3. CC(C)(Oc1ccc(Cl)cc1)C(=O)O [Clofibric Acid]: 0.498
4. CC1(C)S[C@@H]2[C@H](NC(=O)COc3ccccc3)C(=O)N2[C@H]1C(=O)O [Penicillin V potassium salt]: 0.481
5. COC(=O)OCOc1c2n(ccc1=O)N([C@@H]1c3ccccc3SCc3c1ccc(F)c3F)[C@@H]1COCCN1C2=O [Baloxavir marboxil]: 0.558
6. Cc1cc(Nc2nc(N[C@@H](C)c3ccc(F)cc3)c(C#N)cc2F)n[nH]1: 2.18
7. Nc1nc(NC2CC2)c2ncn([C@H]3C=C[C@@H](CO)C3)c2n1 [Abacavir sulfate]: 0.688
8. CCCNS(=O)(=O)Nc1ncnc(OCCOc2ncc(Br)cn2)c1-c1ccc(Br)cc1 [Macitentan]: 0.806

====

tested on: DU145; test: Euclidean distance of Cell Painting phenotypic profile (signed KS, 77 features) to DMSO centroid (dimensionless distance); 5 or 10 uM (library dependent); higher = stronger phenotypic change vs DMSO (phenoactivity); settings: 48 h
Where a name gives a salt, the structure may show the parent alone.
Measurement Kind: Euclidean distance

1) COC(=O)N[C@H](C(=O)N[C@@H](Cc1ccccc1)[C@@H](O)CN(Cc1ccc(-c2ccccn2)cc1)NC(=O)[C@@H](NC(=O)OC)C(C)(C)C)C(C)(C)C [Atazanavir Sulfate]: 0.637
2) O=C(CCc1ccc(O)cc1)c1c(O)cc(O)cc1O: 1.06
3) O=[N+]([O-])c1ccc2c(c1)S(=O)(=O)C=C2: 2.61
4) CN1CCC(=C2c3ccccc3CC(=O)c3sccc32)CC1 [Ketotifen Fumarate]: 0.639
5) CCN(CC)CC#CCOC(=O)C(O)(c1ccccc1)C1CCCCC1 (configuration not stated): 1.19
6) COC(=O)Nc1nc2cc(C(=O)c3ccc(F)cc3)ccc2[nH]1: 3.24
7) CC(C)(Oc1ccc(Cl)cc1)C(=O)O: 0.644
8) Fc1ccc([C@@H]2CCNC[C@H]2COc2ccc3c(c2)OCO3)cc1 [Paroxetine HCl]: 1.59
9) COc1cc2c(cc1OC)CC(=O)N(CCCN(C)C[C@H]1Cc3cc(OC)c(OC)cc31)CC2 [Ivabradine HCl]: 1.14
10) CN(Cc1cc(Br)cc(Br)c1N)C1CCCCC1: 0.619
11) Cc1ccc(-n2sc(=O)n(Cc3ccc(F)cc3)c2=O)cc1: 0.775
12) C[n+]1ccccc1C=NO [Pralidoxime Iodide]: 0.975
13) Oc1ccc(Nc2nc(-c3ccc(Cl)cc3)cs2)cc1: 1.54
14) CN1CCC(NC(=O)c2cc(-c3c(O)cc(O)cc3Oc3ccc([N+](=O)[O-])cc3)on2)CC1: 3.66
15) O=S(=O)(O)c1cc(O)ccc1O [Ethamsylate]: 0.74
16) CC(C)N1CCN(c2ccc(OCC3COC(Cn4cncn4)(c4ccc(Cl)cc4Cl)O3)cc2)CC1 (configuration not stated): 1.88
17) Cn1c(Nc2ccc(C(F)(F)F)cc2)nc2cc(Oc3ccnc(-c4ncc(C(F)(F)F)[nH]4)c3)ccc21: 1.46

====

tested on: 786-O; assay: Euclidean distance of Cell Painting phenotypic profile (signed KS, 77 features) to DMSO centroid (dimensionless distance); 5 or 10 uM (library dependent); higher = stronger phenotypic change vs DMSO (phenoactivity); conditions: 48 h
Structures can show the parent of a compound that is named as a salt.
Euclidean distance overview
Measurement Kind: Euclidean distance

1) O=c1[nH]cc(F)c(=O)[nH]1 [Fluorouracil (5-Fluoracil. 5-FU)]: 1.5
2) CC1=C(C(=O)O)N2C(=O)[C@@H](NC(=O)[C@H](N)c3ccc(O)cc3)[C@H]2SC1 [Cefadroxil hydrate]: 1.09
3) N=C(NCCCCCCNC(=N)NC(=N)Nc1ccc(Cl)cc1)NC(=N)Nc1ccc(Cl)cc1 [Chlorhexidine]: 2.05
4) Cc1ccc([C@@H]2O[C@H](CO)[C@@H](O)[C@H](O)[C@H]2O)cc1Cc1ccc(-c2ccc(F)cc2)s1 [Canagliflozin]: 1.32
5) CC(=O)Oc1cc2c(s1)CCN(C(C(=O)C1CC1)c1ccccc1F)C2 (stereo unspecified) [Prasugrel Hydrochloride]: 0.877
6) C[C@@H](NC(=O)c1ncnc(N)c1Cl)c1ncc(C(=O)Nc2cc(C(F)(F)F)c(Cl)cn2)s1: 1.57

====

test system: OVCAR4; experiment: Euclidean distance of Cell Painting phenotypic profile (signed KS, 77 features) to DMSO centroid (dimensionless distance); 5 or 10 uM (library dependent); higher = stronger phenotypic change vs DMSO (phenoactivity); details: 48 h
Structures can show the parent of a compound that is named as a salt.
Euclidean distance overview
Measurement Kind: Euclidean distance

1. CC(C)=CCOc1ccc(/C=C/C(=O)c2ccc(OCC=C(C)C)cc2OCC(=O)O)cc1: 1.08
2. N=C(N)c1ccc(N=NNc2ccc(C(=N)N)cc2)cc1 [Diminazene Aceturate]: 0.868
3. O=C(C[S+]([O-])Cc1ccco1)NC/C=C\COc1cc(CN2CCCCC2)ccn1 (configuration not stated): 1.4
4. CCCCC[C@H](O)/C=C/[C@H]1[C@H](O)CC(=O)[C@@H]1CCCCCCC(=O)O: 1.2
5. CC(C)(F)C[C@H](N[C@@H](c1ccc(-c2ccc(S(C)(=O)=O)cc2)cc1)C(F)(F)F)C(=O)NC1(C#N)CC1: 0.985
6. c1coc(CNc2ncnc3[nH]cnc23)c1: 1.72
7. C[C@H](CCC(=O)NCCS(=O)(=O)O)[C@H]1CC[C@H]2[C@@H]3[C@@H](O)C[C@@H]4C[C@H](O)CC[C@]4(C)[C@H]3CC[C@]12C: 1.23
8. CCOc1ccccc1OCCN[C@H](C)Cc1ccc(OC)c(S(N)(=O)=O)c1: 1.6
9. C[C@@H](O)[C@H]1C(=O)N2C(C(=O)O)=C([C@H]3CCCO3)S[C@H]12 [Faropenem Sodium]: 0.718
10. OCC(CO)N[C@H]1C[C@](O)(CO)[C@@H](O)[C@H](O)[C@H]1O: 1.34
11. C[N+](C)(C)CCOC(N)=O: 1.56
12. CC(C)NC[C@@H](C(=O)N1CCN(c2ncnc3c2[C@H](C)C[C@H]3O)CC1)c1ccc(Cl)cc1: 1.13
13. CC(=O)OCC(CCn1cnc2cnc(N)nc21)COC(C)=O: 1.57
14. CN(C)CCC=C1c2ccccc2C(C)(C)c2ccccc21 [Melitracen hydrochloride]: 1.37
15. CCCCCCCCOc1ccccc1C(=O)Nc1ccc(C(=O)OCC[N+](C)(CC)CC)cc1 [Otilonium Bromide]: 1.03
16. CCCC(C)NC(=O)c1ccc(Cl)c(Cl)c1 (configuration not stated): 0.568
17. COc1cc(NS(=O)(=O)c2ccc(N)cc2)nc(OC)n1: 1.44

====

test system: DU145; experiment: Euclidean distance of Cell Painting phenotypic profile (signed KS, 77 features) to DMSO centroid (dimensionless distance); 5 or 10 uM (library dependent); higher = stronger phenotypic change vs DMSO (phenoactivity); details: 48 h
Measurement Kind: Euclidean distance

1. Oc1ccc(-c2nc(-c3ccc(F)cc3)c(-c3ccncc3)[nH]2)cc1: 1.39
2. N#Cc1cc(CN2CCC(Nc3ncnc4sc(Cl)cc34)CC2)ccc1F: 1.03
3. O=C1[C@H](CC[C@H](O)c2ccc(F)cc2)[C@@H](c2ccc(O)cc2)N1c1ccc(F)cc1: 3.08
4. Nc1ncnc2n[nH]c(Nc3ccc(F)cc3)c12: 1.25
5. C[C@@H](C(=O)Nc1ccc(Cl)cc1)C1CCC(c2ccnc3ccc(F)cc23)CC1 (stereo partly specified): 1.38
6. Nc1c(CC(=O)O)cccc1C(=O)c1ccc(Br)cc1 [Bromfenac Sodium]: 0.957

====

system: 786-O; test: Euclidean distance of Cell Painting phenotypic profile (signed KS, 77 features) to DMSO centroid (dimensionless distance); 5 or 10 uM (library dependent); higher = stronger phenotypic change vs DMSO (phenoactivity); settings: 48 h
Counter-ions that a name gives are not always drawn.
Euclidean distance overview
Measurement Kind: Euclidean distance

1. CCC1=C[C@@H]2CN(C1)Cc1c([nH]c3ccccc13)[C@@](C(=O)OC)(c1cc3c(cc1OC)N(C)[C@H]1[C@@](O)(C(=O)OC)[C@H](OC(C)=O)[C@]4(CC)C=CCN5CC[C@]31[C@@H]54)C2 [Vinorelbine Tartrate]: 3.19
2. COc1cc2nc(N3CCN(C(=O)C4COc5ccccc5O4)CC3)nc(N)c2cc1OC (centres undefined) [Doxazosin]: 1.52
3. O=C(c1cn(Cc2cncn2Cc2ccc(Br)cc2)cc1-c1cccc2ccccc12)N1CCOCC1: 2.26
4. COC(=O)N/N=C/c1c[n+]([O-])c2ccccc2[n+]1[O-] [Carbadox]: 0.912
5. Cc1cc(O)c(C(=O)N[C@@H](C(=O)N[C@@H]2C(=O)N3C(C(=O)O)=C(CSc4nnnn4C)CS[C@H]23)c2ccc(O)cc2)cn1 [Cefpiramide sodium]: 0.849
6. CN(C)CCCN1c2ccccc2CCc2ccccc21 [Imipramine HCl]: 1.05
7. CCCCCCCCCCCCC[N+](C)(C)Cc1ccccc1 [Benzalkonium chloride]: 2.54
8. CO/N=C(\C(=O)N[C@@H]1C(=O)N2C(C(=O)[O-])=C(C[n+]3cccc4c3CCC4)CS[C@H]12)c1csc(N)n1 [Cefpirome sulfate]: 0.835
9. CCCCCCCCN=C(N)NC(N)=NCc1ccc(Cl)c(Cl)c1 [Olanexidine Hydrochloride semihydrate]: 5.91
